Values compiled from PubChem BioAssay (NCI).

Test system: MALME-3M melanoma
Assay: NCI-60 one-dose screen, 48 h (100 = growth as untreated, 0 = no growth, -100 = all killed)
Conditions: 10 µM unless noted
This is part of a sample that, as a whole, favours compounds with a hit. Of some 83,000 tested, about 20% had one in any assay. Calls of active or inactive are those of the source. Rule for the calls: active = growth percent below 10; inactive = the rest.
Quick reference: growth of the listed items.

Illustrative cases are given below, each with its answer.
1. O=C(CNc1ncco1)Nc1ccc(S(=O)(=O)c2ccc(NC(=O)CNc3ncco3)cc2)cc1; -38.8% (active)
2. CCCc1cc(CCC)n2nc(N)nc2n1; 116% (inactive)
3. COC(=O)c1c(C)nc(C)c2c1C(=O)C(Br)=C(NCCCCO)C2=O; -2.98% (active)
4. COCCNC(=O)Cc1cc(-c2ccc(Cl)cc2)n(-c2ccccc2)c1C; 93.7% (inactive)
5. COc1c(O[C@@H]2OC(CO)[C@H](O)[C@H](O)C2O)cc2oc3cc(O)c(CC=C(C)C)c(O)c3c(=O)c2c1CC=C(C)C (some centres undefined); 104% (inactive)
6. CC(C)(C)[C@H](OCc1cn([C@H]2C[C@@H](O)[C@@H](CO)O2)c(=O)[nH]c1=O)c1ccc(C#Cc2ccccc2)cc1[N+](=O)[O-]; 84% (inactive)
7. N#C/C(=C/C=C/c1ccccc1)S(=O)c1ccccc1 (centres undefined); -30.2% (active)
8. O=C(Nc1ccc(Cl)cc1)C1=NCCCCN1; 96.7% (inactive)

Proceed to the following item.
Lab note: "CN1CCN(CC(=O)N(C)c2ccc(N=C(c3ccccc3)c3c(O)[nH]c4ccc([N+](=O)[O-])cc34)cc2)CC1" gave growth of 84% (inactive)
